System tested: UniProtKB Q13535
Sequence (Q13535 whole entry): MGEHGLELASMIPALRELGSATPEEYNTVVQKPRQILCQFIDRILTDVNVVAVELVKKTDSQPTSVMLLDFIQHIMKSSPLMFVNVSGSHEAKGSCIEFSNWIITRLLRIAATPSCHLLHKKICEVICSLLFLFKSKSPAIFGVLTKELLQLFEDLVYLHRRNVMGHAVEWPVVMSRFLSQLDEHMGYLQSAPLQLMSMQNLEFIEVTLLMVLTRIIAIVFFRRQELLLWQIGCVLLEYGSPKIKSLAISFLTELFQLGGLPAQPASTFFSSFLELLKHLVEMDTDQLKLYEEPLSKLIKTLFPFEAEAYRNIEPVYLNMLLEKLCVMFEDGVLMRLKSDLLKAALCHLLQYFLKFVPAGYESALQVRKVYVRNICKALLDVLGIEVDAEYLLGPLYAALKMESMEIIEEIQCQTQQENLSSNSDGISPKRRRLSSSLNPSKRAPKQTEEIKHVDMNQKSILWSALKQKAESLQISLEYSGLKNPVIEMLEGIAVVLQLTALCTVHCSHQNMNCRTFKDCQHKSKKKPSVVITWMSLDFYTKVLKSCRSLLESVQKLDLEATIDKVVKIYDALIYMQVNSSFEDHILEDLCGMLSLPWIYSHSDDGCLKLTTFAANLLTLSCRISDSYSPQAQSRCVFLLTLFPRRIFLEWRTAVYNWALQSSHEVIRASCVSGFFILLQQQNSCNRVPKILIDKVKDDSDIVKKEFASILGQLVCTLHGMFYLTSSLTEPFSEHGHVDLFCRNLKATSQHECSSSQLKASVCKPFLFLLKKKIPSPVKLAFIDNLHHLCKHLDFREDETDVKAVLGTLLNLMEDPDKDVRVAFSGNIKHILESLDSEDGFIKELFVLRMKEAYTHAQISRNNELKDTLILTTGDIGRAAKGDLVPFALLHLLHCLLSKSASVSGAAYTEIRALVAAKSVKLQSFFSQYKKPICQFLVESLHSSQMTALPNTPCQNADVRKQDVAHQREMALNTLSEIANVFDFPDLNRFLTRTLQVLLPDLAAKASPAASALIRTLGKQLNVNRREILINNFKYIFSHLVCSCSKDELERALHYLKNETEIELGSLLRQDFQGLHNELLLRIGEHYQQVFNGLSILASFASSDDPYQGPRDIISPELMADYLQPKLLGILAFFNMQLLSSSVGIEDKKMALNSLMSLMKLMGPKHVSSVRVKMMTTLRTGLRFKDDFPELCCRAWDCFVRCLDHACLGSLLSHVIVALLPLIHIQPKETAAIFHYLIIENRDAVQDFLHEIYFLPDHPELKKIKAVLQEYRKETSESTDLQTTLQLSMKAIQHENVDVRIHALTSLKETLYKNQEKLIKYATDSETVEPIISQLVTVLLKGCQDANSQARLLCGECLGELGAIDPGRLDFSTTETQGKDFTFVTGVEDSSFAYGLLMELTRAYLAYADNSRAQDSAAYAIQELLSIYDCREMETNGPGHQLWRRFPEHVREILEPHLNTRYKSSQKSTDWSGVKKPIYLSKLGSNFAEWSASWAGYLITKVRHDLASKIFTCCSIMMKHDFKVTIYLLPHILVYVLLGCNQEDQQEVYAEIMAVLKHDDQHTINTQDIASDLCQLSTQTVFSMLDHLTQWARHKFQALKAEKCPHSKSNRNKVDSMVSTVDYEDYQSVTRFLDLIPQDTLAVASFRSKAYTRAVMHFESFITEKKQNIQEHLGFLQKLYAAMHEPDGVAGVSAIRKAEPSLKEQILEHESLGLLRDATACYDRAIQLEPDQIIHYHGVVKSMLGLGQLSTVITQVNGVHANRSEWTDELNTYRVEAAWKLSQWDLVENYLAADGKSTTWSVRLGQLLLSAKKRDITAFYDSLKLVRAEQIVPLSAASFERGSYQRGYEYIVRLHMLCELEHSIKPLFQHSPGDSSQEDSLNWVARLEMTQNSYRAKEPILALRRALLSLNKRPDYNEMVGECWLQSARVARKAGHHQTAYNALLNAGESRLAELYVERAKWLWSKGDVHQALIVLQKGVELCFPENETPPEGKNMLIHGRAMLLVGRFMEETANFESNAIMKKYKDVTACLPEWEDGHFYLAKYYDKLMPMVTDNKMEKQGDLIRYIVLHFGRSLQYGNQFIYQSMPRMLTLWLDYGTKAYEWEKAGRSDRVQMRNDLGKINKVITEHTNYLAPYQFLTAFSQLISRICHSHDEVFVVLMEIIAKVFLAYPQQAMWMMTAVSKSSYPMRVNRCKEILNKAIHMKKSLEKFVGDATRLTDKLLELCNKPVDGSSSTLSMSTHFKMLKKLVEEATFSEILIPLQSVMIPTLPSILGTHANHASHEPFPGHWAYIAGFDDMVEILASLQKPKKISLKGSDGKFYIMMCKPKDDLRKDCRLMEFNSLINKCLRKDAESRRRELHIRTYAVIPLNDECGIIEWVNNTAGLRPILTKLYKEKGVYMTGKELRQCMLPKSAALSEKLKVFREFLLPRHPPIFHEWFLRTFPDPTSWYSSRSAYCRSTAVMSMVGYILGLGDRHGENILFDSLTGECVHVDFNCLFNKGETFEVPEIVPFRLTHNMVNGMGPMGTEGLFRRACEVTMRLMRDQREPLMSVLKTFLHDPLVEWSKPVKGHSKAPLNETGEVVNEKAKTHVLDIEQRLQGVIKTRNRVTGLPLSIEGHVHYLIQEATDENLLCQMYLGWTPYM
Sequence (Q8WXE1 whole entry partner): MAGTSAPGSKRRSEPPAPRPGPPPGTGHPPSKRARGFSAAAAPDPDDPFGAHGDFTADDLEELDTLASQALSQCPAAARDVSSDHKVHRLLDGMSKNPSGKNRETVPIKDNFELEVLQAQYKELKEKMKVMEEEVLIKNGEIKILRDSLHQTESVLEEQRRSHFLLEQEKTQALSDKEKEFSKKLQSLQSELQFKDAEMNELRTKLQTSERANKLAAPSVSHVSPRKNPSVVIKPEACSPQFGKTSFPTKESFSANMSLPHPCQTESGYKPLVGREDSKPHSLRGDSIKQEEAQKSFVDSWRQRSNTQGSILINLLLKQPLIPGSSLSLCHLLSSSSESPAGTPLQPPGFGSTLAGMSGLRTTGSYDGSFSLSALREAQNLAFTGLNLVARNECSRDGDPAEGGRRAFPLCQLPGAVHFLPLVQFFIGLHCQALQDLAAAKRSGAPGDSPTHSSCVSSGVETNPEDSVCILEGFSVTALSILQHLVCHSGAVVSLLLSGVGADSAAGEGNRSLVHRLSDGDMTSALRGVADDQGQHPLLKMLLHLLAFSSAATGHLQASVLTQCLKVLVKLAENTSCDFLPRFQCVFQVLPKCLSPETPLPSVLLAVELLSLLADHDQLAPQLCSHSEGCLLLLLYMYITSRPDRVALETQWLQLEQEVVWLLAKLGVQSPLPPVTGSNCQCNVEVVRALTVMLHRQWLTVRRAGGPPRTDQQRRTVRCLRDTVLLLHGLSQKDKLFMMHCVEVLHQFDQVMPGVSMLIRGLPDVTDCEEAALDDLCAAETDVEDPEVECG
Run description: ATR enzyme activity inhibition assay (HTRF)
Format: biochemical
Condition: p53 substrate, full-length ATR enzyme
Structures can show the parent of a compound that is named as a salt.
Measurement type: IC50 (nM)
Express your answer in nM, writing the number without its unit.

Known IC50 results, listed for orientation:
CNCc1ccc(-c2cc(-c3nc(-c4ccc(S(=N)(=O)C(C)C)cc4)cnc3N)on2)cc1 (centres unmarked) :: 2.79
CC(C)S(=N)(=O)c1ccc(-c2cnc(N)c(-c3cc(-c4ccc5[nH]c(=O)[nH]c5c4)no3)n2)cc1 (centres unmarked) [Example 22, dihydrochloride] :: 1.21

Find the measured IC50: item CN1CCC(NCc2ccc(-c3nnc(-c4nc(-c5ccc6c(c5)C(F)C(C)(C)S6(=O)=O)cnc4N)o3)cc2)CC1 (centres unmarked) , target or system UniProtKB Q13535.
0.57

Now the compound CC(C)S(=O)(=O)c1ccc(-c2cnc(N)c(-c3cc(-c4ccc(C(=O)NC(=N)N)cc4)no3)n2)cc1 [Example 26, dihydrochloride]
2.06

Moving on to the next compound: CNC(=N)Nc1ccc(-c2cc(-c3nc(-c4ccc(S(=O)(=O)C(C)C)cc4)cnc3N)on2)nc1 [Example 19, dihydrochloride]
1.26
